assay: Toxicity liver stage against HepG2, at 10uM; format: cell-based; set-up: test concentration 10 uM, cell line HepG2-A16-CD81EGFP; conditions: human, HepG2-A16-CD81EGFP cells; read-out: INHIBITION
We begin with a simple list: items and their reported cytotoxicity at 10 µM.
Your answer is read as %, so omit the unit and give the number.

Worked cases, answers included:
[
  {
    "Compound": "Cn1cnc(S(=O)(=O)NCCCN2CCCC2)c1Cl",
    "cytotoxicity at 10 µM (%)": -11.6
  },
  {
    "Compound": "CC1c2ncc(COc3cccnc3)n2CCN1C(=O)C1=CCCC1 (configuration not stated)",
    "cytotoxicity at 10 µM (%)": -2.59
  },
  {
    "Compound": "COc1ccccc1C(=O)N1CCOC2(CCCN(C(C)=O)C2)C1 (configuration not stated)",
    "cytotoxicity at 10 µM (%)": -72.9
  },
  {
    "Compound": "Cc1nc(C2CCCN2C(=O)CNS(C)(=O)=O)no1 (configuration not stated)",
    "cytotoxicity at 10 µM (%)": 17.1
  },
  {
    "Compound": "CC(C)COCC(C)NC(=O)NCc1cccc(-n2cncn2)c1 (configuration not stated)",
    "cytotoxicity at 10 µM (%)": -0.662
  }
]

Summary for this compound, Cc1nn(C)c(Cl)c1C1CCCN1C(=O)c1cccc(C#N)c1 (configuration not stated) : cytotoxicity at 10 µM is -22

Record Cc1csc(N2CCN(C3CCc4ccccc4C3)CC2)n1 (configuration not stated) , field cytotoxicity at 10 µM: 2.01

Query `O=C(NC[C@H]1CCCN1)c1cc(COc2cccc(C(F)(F)F)c2)[nH]n1` yields cytotoxicity at 10 µM of -7.59

###

experiment: Toxicity liver stage against HepG2, at 10uM; assay type: cell-based; set-up: test concentration 10 uM, cell line HepG2-A16-CD81EGFP; conditions: human, HepG2-A16-CD81EGFP cells; read-out: INHIBITION
Measurement Kind: cytotoxicity at 10 µM

[
  {
    "Compound": "c1ccc(-n2cc(CN3CCCC3Cn3cccn3)nn2)cc1 (configuration not stated)",
    "cytotoxicity at 10 µM": "0.207%"
  },
  {
    "Compound": "CC(c1nc(C(C)(C)C)no1)N1CCN(c2ccc(C#N)cn2)CC1 (configuration not stated)",
    "cytotoxicity at 10 µM": "3.84%"
  },
  {
    "Compound": "CCn1cc2[nH]c(OC)c(CNC(=O)CCC3CCCC3)cc-2c1=O",
    "cytotoxicity at 10 µM": "-3.28%"
  },
  {
    "Compound": "Cc1ccc(-c2c(-c3ccccc3)ncn2CCCN2CCOCC2)o1",
    "cytotoxicity at 10 µM": "6.23%"
  },
  {
    "Compound": "Cc1ccc(CNC(=O)NCc2cccnc2N(C)C)s1",
    "cytotoxicity at 10 µM": "-4.15%"
  }
]

The compound identified as `COC(=O)[C@@H]1Cc2[nH]cnc2CN1Cc1cc2ccccc2o1` registered its cytotoxicity at 10 µM at 0.994%

Field cytotoxicity at 10 µM (entry `Clc1ccc(CN2CCN(Cn3nccc3-c3cccnc3)CC2)s1` ) reads 8.64%

Reported cytotoxicity at 10 µM ( CCOc1nnc(CN(Cc2ccccc2)CC(O)c2ccco2)s1 (configuration not stated) ) = -1.57%

###

assay: Toxicity liver stage against HepG2, at 10uM; format: cell-based; set-up: test concentration 10 uM, cell line HepG2-A16-CD81EGFP; settings: human, HepG2-A16-CD81EGFP cells; read-out: INHIBITION
Let's look at some molecules and their measured cytotoxicity at 10 µM.
Form entry: value (%) — number only.

Use these answered entries as a reference point.
[
  {
    "Molecule": "COc1cccc2c1OCC(C(=O)N1CCN(C3CCSCC3)CC1)C2 (configuration not stated)",
    "cytotoxicity at 10 µM, %": -1.62
  },
  {
    "Molecule": "COc1cc(NCc2ncc[nH]2)ccc1Br",
    "cytotoxicity at 10 µM, %": 11.2
  },
  {
    "Molecule": "CC(C)NC(=O)[C@H]1C[C@H]2CN(C(=O)NCc3ccccc3)C[C@@H]1O2",
    "cytotoxicity at 10 µM, %": 5.5
  },
  {
    "Molecule": "COc1cccc2c1ccn2CC(=O)N1CCCC(C(=O)O)C1 (configuration not stated)",
    "cytotoxicity at 10 µM, %": 6.28
  },
  {
    "Molecule": "Cc1ncccc1CNCC1CCCN1c1cccnn1 (configuration not stated)",
    "cytotoxicity at 10 µM, %": -14.2
  }
]

The molecule `COCCN1CCc2cc(C(=O)O)c(NCC3CC3)nc2CC1` showed cytotoxicity at 10 µM equal to 4.21

Note to self: cytotoxicity at 10 µM recorded for COc1ccc(SC(C)C(=O)N2CCC(C(=O)N3CCCC3)CC2)cc1 (configuration not stated) was 1.03

What the record says about NC(=O)C1CCCN1Cc1nccn1CC(F)(F)F (configuration not stated) : cytotoxicity at 10 µM is 12.2

Form: molecule = CC(C)Cc1noc(CC2CCS(=O)(=O)C2)n1 (configuration not stated) ; cytotoxicity at 10 µM = 3.03

For reference, reported cytotoxicity at 10 µM for `Cc1ccccc1Oc1ncccc1CNC(=O)Cn1cccnc1=O` stands at -16.8

Recorded result, CC(C)CN1C(=O)CC(N2CCN(c3ccc(F)cc3)CC2)C1=O (configuration not stated) , cytotoxicity at 10 µM: 6.56

Value of measured cytotoxicity at 10 µM for the entry `CCOC1CCN(C(=O)NCc2ccc(C(=O)N(C)C(C)C)cc2)CC1` : -6.55

###

experiment: Toxicity liver stage against HepG2, at 10uM; assay type: cell-based; design: test concentration 10 uM, cell line HepG2-A16-CD81EGFP; details: human, HepG2-A16-CD81EGFP cells; read-out: INHIBITION
Measurement Kind: cytotoxicity at 10 µM

[
  {
    "Molecule": "CCNC(=O)N1C[C@@H]2OCC(=O)N(C)[C@@H]2C1",
    "Measurement Kind": "cytotoxicity at 10 µM",
    "Measured Value": "7.65%"
  },
  {
    "Molecule": "CCN1CCC(c2cncc(N(C)C)n2)CC1",
    "Measurement Kind": "cytotoxicity at 10 µM",
    "Measured Value": "5.12%"
  },
  {
    "Molecule": "Cc1ncccc1CNc1ccc(OCCO)nc1",
    "Measurement Kind": "cytotoxicity at 10 µM",
    "Measured Value": "-1.78%"
  },
  {
    "Molecule": "CCOCC(=O)NCCc1nc(C2CC2)cc(C(F)(F)F)n1",
    "Measurement Kind": "cytotoxicity at 10 µM",
    "Measured Value": "1.01%"
  },
  {
    "Molecule": "O=C(Cn1ccc2ccccc21)N1CCC(Oc2cnccn2)CC1",
    "Measurement Kind": "cytotoxicity at 10 µM",
    "Measured Value": "4.61%"
  },
  {
    "Molecule": "CN(C)CC1CN(Cc2nc(-c3ccccn3)no2)CCO1 (configuration not stated)",
    "Measurement Kind": "cytotoxicity at 10 µM",
    "Measured Value": "-5.8%"
  }
]

Measured cytotoxicity at 10 µM, `Cc1cnnn1Cc1nnn2c1CN(Cc1cccs1)CCC2` : 8.28%

Reported cytotoxicity at 10 µM for `Cc1ccccc1C(=O)NCc1ccc(N2CCNC(=O)C2)cc1` was -9.67%

Value of measured cytotoxicity at 10 µM for the entry `COc1cc(CNCCc2nc(C)cs2)cc2c1OCCO2` : -2.4%

Looking up `CC(C)N1C[C@H](NC(=O)c2coc(COc3cccc(F)c3)n2)[C@@H](O)C1` , I found its cytotoxicity at 10 µM recorded as -145%

Item: `COc1cc(C)ccc1OCC(=O)Nc1ccnc(OCCN(C)C)c1` | cytotoxicity at 10 µM: -5.18%

Reported cytotoxicity at 10 µM for `CCCN1CCN(C(=O)c2ccc3nc(C)oc3c2)[C@H]2CS(=O)(=O)C[C@H]21` was -23.2%

Lab note: measured cytotoxicity at 10 µM of `CCSc1cc(C(=O)NCCC(=O)N(C)C)ccn1` was -5.41%

get_value(item= COc1ccc2cc(C(=O)N3CCCC(n4ccnc4C)C3)[nH]c2c1 (configuration not stated) , readout=cytotoxicity at 10 µM) returns -9.74%

`CC(C)(C)c1nc(CN2CCC(c3ccnn3CCO)CC2)no1` has a reported cytotoxicity at 10 µM of -5.22%

Entry `OCC1CCN(Cc2cc3c(cc2Br)OCCO3)CC1` , cytotoxicity at 10 µM reported as 6.84%

Per the record, O=C1Nc2ccccc2C12CCCN(Cc1ccc3c(c1)OCCO3)C2 (configuration not stated) has cytotoxicity at 10 µM of 0.529%

Form: molecule = CC1CCC2(CC1)Nc1ccccc1CO2 (configuration not stated) ; cytotoxicity at 10 µM = 4.81%

Reported cytotoxicity at 10 µM for COC1COC2(CCN(Cc3cccc(Cl)c3)CC2)C1 (configuration not stated) was -1.31%

Notebook: `O=C(Cc1ccon1)N1CCc2cc(Br)sc2C1` , cytotoxicity at 10 µM read as 1.69%

response.value for `O=c1cc2c(nn1CN1CCOCC1)CCC2` (field: cytotoxicity at 10 µM) = 1.31%

// `c1ccc(NC[C@@H]2CCC[C@@H]3CN(c4ncccn4)C[C@@H]32)nc1` : cytotoxicity at 10 µM value = -106%

Value of measured cytotoxicity at 10 µM for the entry `Cc1cccc(CN2C(=O)CCC23CCN(Cc2nccn2C)CC3)n1` : 5.47%

Memo: Cc1nccn1C1CCCN(C(=O)c2ccc3c(c2)NC(=O)CO3)C1 (configuration not stated) , reported cytotoxicity at 10 µM: -11.5%

Entry Cc1cccc(N2CCC3(CCCN(C(=O)Cc4cccnc4)C3)C2)n1 (configuration not stated) — recorded cytotoxicity at 10 µM = 0.824%

// `N#CCc1ccc(OCC(=O)NS(=O)(=O)c2ccc(Br)s2)cc1` : cytotoxicity at 10 µM value = -5.46%

For Cc1cc(CS(=O)(=O)N(C)C(C)c2ccc(Cl)cc2)on1 (configuration not stated) the molecule record lists cytotoxicity at 10 µM as 9.72%

All values here come from ChEMBL document CHEMBL4513216.
